Molecular target: mitochondrial calcium/sodium antiporter (Rattus norvegicus, UniProt Q6AXS0)
Construct: endogenous in cells; host or cells: INS-1 rat insulinoma cells, digitonin-permeabilized
Sequence (Q6AXS0 27-585): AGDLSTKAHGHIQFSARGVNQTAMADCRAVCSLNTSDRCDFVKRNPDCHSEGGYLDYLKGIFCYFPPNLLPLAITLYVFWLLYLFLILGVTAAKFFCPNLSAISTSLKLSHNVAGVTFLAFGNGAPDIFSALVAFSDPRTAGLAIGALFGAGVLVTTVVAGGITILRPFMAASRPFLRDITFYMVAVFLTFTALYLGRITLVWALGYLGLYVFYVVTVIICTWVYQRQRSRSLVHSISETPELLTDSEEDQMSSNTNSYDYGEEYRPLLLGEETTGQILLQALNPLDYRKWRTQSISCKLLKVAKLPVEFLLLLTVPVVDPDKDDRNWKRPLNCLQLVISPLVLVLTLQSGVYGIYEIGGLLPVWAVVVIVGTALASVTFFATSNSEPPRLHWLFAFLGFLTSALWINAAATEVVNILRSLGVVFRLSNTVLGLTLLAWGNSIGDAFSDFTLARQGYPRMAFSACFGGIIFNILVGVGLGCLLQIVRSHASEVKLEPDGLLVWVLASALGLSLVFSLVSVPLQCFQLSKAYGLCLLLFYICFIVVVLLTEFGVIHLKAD
Test: Inhibition of mitochondrial calcium/sodium antiporter activity in digitonin-permeabilized INS-1 cells (calcium green 5N)
Format: cell-based
Conditions: permeabilized INS-1 cells, 20 mM NaCl-induced calcium efflux; read-out: IC50, MCA inhibition
pIC50: −log10 of the molar value.
property.measured: pIC50

>>> obs_value("O=C1C[S+]([O-])C(c2ccccc2Cl)c2cc(Cl)ccc2N1 (stereo not shown)")
"> 4.00"

* * *

Biological target: mitochondrial calcium/sodium antiporter (Rattus norvegicus, UniProt Q6AXS0)
Construct: endogenous in cells; host or cells: INS-1 rat insulinoma cells, digitonin-permeabilized
Test: Inhibition of mitochondrial calcium/sodium antiporter activity in digitonin-permeabilized INS-1 cells (calcium green 5N)
Format: cell-based
property.measured: IC50

>>> obs_value("Cc1ccc(C2SCC(=O)Nc3ccc(Cl)cc32)c(C)c1 (stereo not drawn)")
"< 100 µM"
>>> obs_value("O=C1CSC(c2ccccc2Cl)c2ccccc2N1 (stereo not drawn)")
"< 100 µM"
>>> obs_value("Cc1ccccc1C1OCC(=O)Nc2ccc(Cl)cc21 (stereo not drawn)")
"< 100 µM"
